The origin of these recorded values is paper PMC5681660.

- target-or-system: human NTCP (Homo sapiens, UniProt Q14973)
- Sequence (Q14973 whole entry): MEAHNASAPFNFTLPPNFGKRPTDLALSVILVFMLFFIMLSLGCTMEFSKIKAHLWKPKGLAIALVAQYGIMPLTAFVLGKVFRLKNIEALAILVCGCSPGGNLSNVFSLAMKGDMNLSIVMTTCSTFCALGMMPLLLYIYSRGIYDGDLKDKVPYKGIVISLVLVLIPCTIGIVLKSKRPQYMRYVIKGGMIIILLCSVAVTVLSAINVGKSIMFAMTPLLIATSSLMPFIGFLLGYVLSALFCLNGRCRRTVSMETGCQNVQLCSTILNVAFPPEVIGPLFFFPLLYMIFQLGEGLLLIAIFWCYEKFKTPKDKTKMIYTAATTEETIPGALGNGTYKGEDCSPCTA
- test-details: Screening taurocholate uptake assay (96-well, [14C]taurocholate, 10 µM drug)
- assay-conditions: combined ranking from functional and binding screening assays
Where a name gives a salt, the structure may show the parent alone.
Overview of recorded Ranking score for various compounds
Returns: the value as a bare number; no unit string appended.

Please review the entries below; each comes with its answer.
# compound, target-or-system, experimental-readout, measured-result
records = [
    ("O=C(O)Cc1sc(-c2ccccc2)nc1-c1ccc(Cl)cc1 [Fentiazac]", "human NTCP (Homo sapiens, UniProt Q14973)", "Ranking score", 402.269),
    ("CC(C)NC[C@H](O)COc1ccc(CC(N)=O)cc1 [(S)-(-)-Atenolol]", "human NTCP (Homo sapiens, UniProt Q14973)", "Ranking score", 412.97),
    ("CNC1(C)C2CCC(C2)C1(C)C (centres unmarked) [Mecamylamine hydrochloride]", "human NTCP (Homo sapiens, UniProt Q14973)", "Ranking score", 340.338),
]

For human NTCP (Homo sapiens, UniProt Q14973), provide Ranking score of CN[C@H]1CC[C@@H](c2ccc(Cl)c(Cl)c2)c2ccccc21 [Sertraline] please.
426.035

Query Ranking score on human NTCP (Homo sapiens, UniProt Q14973) for CNC(C)CCC=C(C)C.CNC(C)CCC=C(C)C.O=C(O)[C@@H](O)[C@H](O)[C@H](O)[C@@H](O)C(=O)O [Isometheptene mucate]
319.923

Find Ranking score (human NTCP (Homo sapiens, UniProt Q14973)) for the entry CC[N+](C)(C)Cc1ccccc1Br [Bretylium tosylate]
436.134

So what Ranking score did CNNCc1ccc(C(=O)NC(C)C)cc1 [Procarbazine hydrochloride] get with human NTCP (Homo sapiens, UniProt Q14973)?
345.534

What value of Ranking score on human NTCP (Homo sapiens, UniProt Q14973) does CC=CC1=C(C(=O)O)N2C(=O)[C@@H](NC(=O)[C@H](N)c3ccc(O)cc3)[C@H]2SC1 [Cefprozil] have?
364.678

Lab note: need Ranking score with human NTCP (Homo sapiens, UniProt Q14973) for entry C=C1C[C@H]2[C@@H]3C=C(C)C4=CC(=O)CC[C@]4(C)[C@H]3CC[C@]2(C)[C@@]1(OC(C)=O)C(C)=O [Melengestrol acetate] , please look it up.
323.966
